ASSAY DETAILS: Cmax in ICR mouse at 30 mg/kg, po measured upto 24 hrs by LC-MS/MS analysis
Type: ADME, organism-based
Set-up: route oral, dose 30 mg/kg, time <=24
RUN PARAMETERS: in vivo

LINE NOTATION	UNIT TEXT	Cmax
CC[C@@H](C)[C@H](N)C(=O)N1CCn2cc(-c3ccccc3)nc2[C@@H]1CC1CCCCC1	ng/mL	2890

* * *

ASSAY DETAILS: Tmax in ICR mouse at 10 mg/kg, iv measured upto 24 hrs by LC-MS/MS analysis
Format: ADME, organism-based
RUN PARAMETERS: in vivo

LINE NOTATION	Tmax [min]
CC[C@@H](C)[C@H](N)C(=O)N1CCn2cc(-c3ccccc3)nc2[C@@H]1CC1CCCCC1	4.8
